assayDetails: Intrinsic clearance in human liver microsomes assessed per mg of protein
Type: ADME
measurementContext: read-out: CLH
measuredAttribute: microsomal CLint

Guide cases for microsomal CLint, answers given:
- cpdSmiles: "CC(C)(C)c1ccc(/C=N/NC(=N)N/N=C/c2ccc(C(C)(C)C)cc2)cc1"
  result: "89 µL/min/mg"
- cpdSmiles: "N=C(N/N=C/c1ccc(Cl)cc1)N/N=C/c1ccc(Cl)cc1"
  result: "< 7 µL/min/mg"

Now take the following compound into account.
Ask: microsomal CLint lookup needed for N=C(N/N=C(\CO)c1ccc(Cl)cc1)N/N=C(\CO)c1ccc(Cl)cc1 , thanks.
Result: < 7 µL/min/mg

* * *

Listed below: half-life values for each entry.
assayDetails: Half life of compound in human liver microsomes
Format: ADME

Guide cases for half-life, answers given:
- cpdSmiles: "N=C(N/N=C(\\CO)c1ccc(Cl)cc1)N/N=C(\\CO)c1ccc(Cl)cc1"
  measuredAttribute: "half-life"
  result: "> 4.12 h"
- cpdSmiles: "CC(C)(C)c1ccc(/C=N/NC(=N)N/N=C/c2ccc(C(C)(C)C)cc2)cc1"
  measuredAttribute: "half-life"
  result: "0.333 h"

Ask: half-life lookup needed for N=C(N/N=C/c1ccc(Cl)cc1)N/N=C/c1ccc(Cl)cc1 , thanks.
Result: > 4.12 h

* * *

assayDetails: Metabolic stability in human liver microsomes assessed as compound loss after 60 mins
Assay type: ADME
measurementContext: read-out: Drug degradation
measuredAttribute: metabolised at 1 h

- cpdSmiles: "N=C(N/N=C/c1ccc(Cl)cc1)N/N=C/c1ccc(Cl)cc1"
  result: "< 15%"

Now take the following compound into account.
Ask: metabolised at 1 h lookup needed for N=C(N/N=C(\CO)c1ccc(Cl)cc1)N/N=C(\CO)c1ccc(Cl)cc1 , thanks.
Result: < 15%
